Reported MIC values for a set of compounds
# Test system: E. coli MP-4
# PROCEDURE_DETAILS: MIC determination by CLSI broth dilution, E. coli MP-4
# Type: cell-based
# MEASUREMENT_SETUP: Escherichia coli, MP4, CLSI broth dilution; strain MP-4

>  <COMPOUND>
CCCN1C[C@H](C)C[C@@](C)(OC)[C@H](O[C@@H]2O[C@H](C)C[C@H](N(C)C)[C@H]2O)[C@@H](C)C(=O)C(C)(C)C(=O)OC[C@@H]1CCCN(C)C(C)C

>  <TARGET>
E. coli MP-4

>  <MIC>
< 4 µg/mL

$$$$
>  <COMPOUND>
CO[C@]1(C)C[C@@H](C)CN(C)[C@@H](CC2CCN(CC(C)C)CC2)COC(=O)C(C)(C)C(=O)[C@H](C)[C@H]1O[C@@H]1O[C@H](C)C[C@H](N(C)C)[C@H]1O

>  <TARGET>
E. coli MP-4

>  <MIC>
4 to 32 µg/mL

$$$$

Consider now this further compound.
Answer with reported MIC of CCC(O)C(C)CN1CCC(C[C@@H]2COC(=O)C(C)(C)C(=O)[C@H](C)[C@@H](O[C@@H]3O[C@H](C)C[C@H](N(C)C)[C@H]3O)[C@](C)(OC)C[C@@H](C)CN2C)CC1 (stereo partly drawn)
< 4 µg/mL

----------
# Test system: P. aeruginosa MP-3
# PROCEDURE_DETAILS: MIC determination by CLSI broth dilution, P. aeruginosa MP-3
# Format: cell-based
# MEASUREMENT_SETUP: Pseudomonas aeruginosa, MP3, strain MP-3
Reported MIC values for a set of compounds

>  <STRUCTURE_SMILES_STRING>
CO[C@]1(C)C[C@@H](C)CN(C)[C@@H](CCCN2CC[C@H](F)C2)COC(=O)C(C)(C)C(=O)[C@H](C)[C@H]1O[C@@H]1O[C@H](C)C[C@H](N(C)C)[C@H]1O

>  <REPORTED_VALUE>
> 32 µg/mL

$$$$
>  <STRUCTURE_SMILES_STRING>
COC(CN1CCC(C[C@@H]2COC(=O)C(C)(C)C(=O)[C@H](C)[C@@H](O[C@@H]3O[C@H](C)C[C@H](N(C)C)[C@H]3O)[C@](C)(OC)C[C@@H](C)CN2C)CC1)OC

>  <REPORTED_VALUE>
> 32 µg/mL

$$$$
>  <STRUCTURE_SMILES_STRING>
CO[C@]1(C)C[C@@H](C)CN(C)[C@H](CC2CCN(CC3CC3)CC2)COC(=O)C(C)(C)C(=O)[C@H](C)[C@H]1O[C@@H]1O[C@H](C)C[C@H](N(C)C)[C@H]1O

>  <REPORTED_VALUE>
> 32 µg/mL

$$$$
>  <STRUCTURE_SMILES_STRING>
CCCCCCCN1CCC(C[C@@H]2COC(=O)C(C)(C)C(=O)[C@H](C)[C@@H](O[C@@H]3O[C@H](C)C[C@H](N(C)C)[C@H]3O)[C@](C)(OC)C[C@@H](C)CN2C)CC1

>  <REPORTED_VALUE>
> 32 µg/mL

$$$$

Answer with reported MIC of `CO[C@]1(C)C[C@@H](C)CN(C)[C@@H](CCCNC(C)C)COC(=O)C(C)(C)C(=O)[C@H](C)[C@H]1O[C@@H]1O[C@H](C)C[C@H](N(C)C)[C@H]1O`
> 32 µg/mL

----------
Reported MIC values for a set of molecules
# System: E. coli MP-4
# PROCEDURE_DETAILS: MIC determination by CLSI broth dilution, E. coli MP-4
# Type: cell-based
# MEASUREMENT_SETUP: Escherichia coli, MP4, CLSI broth dilution; strain MP-4

Field: example entries. Status: answers known.
>  <MOLECULE>
CO[C@]1(C)C[C@@H](C)CNC(CO)(CO)COC(=O)[C@H](C)C(=O)[C@H](C)[C@H]1O[C@@H]1OC(C)CC(N(C)C)C1O (stereo partly shown) [Compound 212]

>  <RECORDED_METRIC>
MIC

>  <REPORTED_VALUE>
> 32 µg/mL

$$$$
>  <MOLECULE>
CCN(C)CC[C@@H](O)[C@@H]1COC(=O)C(C)(C)C(=O)[C@H](C)[C@@H](O[C@@H]2O[C@H](C)C[C@H](N(C)C)[C@H]2O)[C@](C)(OC)C[C@@H](C)CN1C [Compound 3]

>  <RECORDED_METRIC>
MIC

>  <REPORTED_VALUE>
< 4 µg/mL

$$$$
>  <MOLECULE>
CO[C@]1(C)C[C@@H](C)CN(C)[C@H](CC2CCN(Cc3ccncc3)CC2)COC(=O)C(C)(C)C(=O)[C@H](C)[C@H]1O[C@@H]1O[C@H](C)C[C@H](N(C)C)[C@H]1O [Compound 61]

>  <RECORDED_METRIC>
MIC

>  <REPORTED_VALUE>
< 4 µg/mL

$$$$
>  <MOLECULE>
CO[C@]1(C)C[C@@H](C)CN(C)[C@@H](CC2CCN(CC3CCCCC3)CC2)COC(=O)C(C)(C)C(=O)[C@H](C)[C@H]1O[C@@H]1O[C@H](C)C[C@H](N(C)C)[C@H]1O [Compound 72]

>  <RECORDED_METRIC>
MIC

>  <REPORTED_VALUE>
< 4 µg/mL

$$$$
>  <MOLECULE>
CCCCCCCN1CCC([C@@H](O)[C@H]2COC(=O)C(C)(C)C(=O)[C@H](C)[C@@H](O[C@@H]3O[C@H](C)C[C@H](N(C)C)[C@H]3O)[C@](C)(OC)C[C@@H](C)CN2C)CC1 [Compound 22]

>  <RECORDED_METRIC>
MIC

>  <REPORTED_VALUE>
< 4 µg/mL

$$$$

Answer with reported MIC of CO[C@]1(C)C[C@@H](C)CN(C)[C@@H](CCCN2CCC[C@@H]2C(F)(F)F)COC(=O)C(C)(C)C(=O)[C@H](C)[C@H]1O[C@@H]1O[C@H](C)C[C@H](N(C)C)[C@H]1O [Compound 123]
> 32 µg/mL

Answer with reported MIC of CO[C@]1(C)C[C@@H](C)CN(C)[C@H](CC2CCN(C(=O)C3CC3)CC2)COC(=O)C(C)(C)C(=O)[C@H](C)[C@H]1O[C@@H]1O[C@H](C)C[C@H](N(C)C)[C@H]1O [Compound 45]
4 to 32 µg/mL

Answer with reported MIC of CCCCCCCN1CCC(C[C@@H]2COC(=O)[C@@](C)(Cc3ccccc3)C(=O)[C@H](C)[C@@H](O[C@@H]3O[C@H](C)C[C@H](N(C)C)[C@H]3O)[C@](C)(OC)C[C@@H](C)CN2C)CC1 [Compound 171]
< 4 µg/mL

Answer with reported MIC of CO[C@]1(C)C[C@@H](C)CN[C@@H](CN(C)C)COC(=O)C(C)(C)C(=O)[C@H](C)[C@H]1O[C@@H]1O[C@H](C)C[C@H](N(C)C)[C@H]1O [Compound 17]
> 32 µg/mL

Answer with reported MIC of CO[C@]1(C)C[C@@H](C)CN(C)[C@H](/C=C/CN2Cc3cccnc3C2)COC(=O)C(C)(C)C(=O)[C@H](C)[C@H]1O[C@@H]1O[C@H](C)C[C@H](N(C)C)[C@H]1O [Compound 152]
< 4 µg/mL

----------
# System: K. pneumoniae MP-648
# PROCEDURE_DETAILS: MIC determination by CLSI broth dilution, K. pneumoniae MP-648
# Assay type: cell-based
# MEASUREMENT_SETUP: Klebsiella pneumoniae, MP648, CLSI broth dilution; strain MP-648
RECORDED_METRIC: MIC

Field: example entries. Status: answers known.
>  <STRUCTURE_SMILES_STRING>
CO[C@]1(C)C[C@@H](C)CN(C)[C@@H](CCCN2CCC[C@@H]2C)COC(=O)C(C)(C)C(=O)[C@H](C)[C@H]1O[C@@H]1O[C@H](C)C[C@H](N(C)C)[C@H]1O

>  <REPORTED_VALUE>
< 4 µg/mL

$$$$
>  <STRUCTURE_SMILES_STRING>
CCN1C[C@H](C)C[C@@](C)(OC)[C@H](O[C@@H]2O[C@H](C)C[C@H](N(C)C)[C@H]2O)[C@@H](C)C(=O)C(C)(C)C(=O)OC[C@@H]1CCCN(C)C(C)C

>  <REPORTED_VALUE>
< 4 µg/mL

$$$$

Consider now this further molecule.
Answer with reported MIC of `CO[C@]1(C)C[C@@H](C)CN(C)[C@H]([C@H](O)[C@@H](O)CO)COC(=O)C(C)(C)C(=O)[C@H](C)[C@H]1O[C@@H]1O[C@H](C)C[C@H](N(C)C)[C@H]1O`
> 32 µg/mL

The measured values listed here are drawn from patent US12552825B2.
